system: MALME-3M melanoma; assay: NCI-60 one-dose screen, 48 h; conditions: 10 µM unless noted
The panel holds about 83,000 compounds, 20% with a hit somewhere; the sample as a whole holds those more often. Active and inactive are the calls of the source. Rule for the calls: active = growth percent below 10; inactive = the rest.
Labels: active, inactive

>>> qualitative_label("COc1ccc(Cl)cc1Nc1nc(C(F)(F)F)ccc1C(=O)N/N=C/c1c(Cl)cccc1Cl")
"inactive"
>>> qualitative_label("COc1cccc(-c2nc(-c3ccc(N)cc3)co2)c1")
"inactive"
>>> qualitative_label("O=C1NC(=O)/C(=C\\c2ccco2)S1")
"inactive"
>>> qualitative_label("O=C(COc1ccc(/C=C2\\Oc3ccc4ccccc4c3C2=O)cc1)c1ccc([N+](=O)[O-])cc1")
"inactive"
>>> qualitative_label("COc1ccccc1-n1c(-c2ccc(O)cc2C)cn2c3c(=O)[nH]c(=O)n(C)c3nc12")
"inactive"
>>> qualitative_label("CC(=O)c1nn(-c2ccccc2)c(=Nc2ccccc2)cc1C")
"inactive"
>>> qualitative_label("CN[C@@H]1C(OC2[C@H](O[C@H]3[C@H](O)[C@@H](O)[C@H](N=C(N)N)[C@@H](O)[C@@H]3N=C(N)N)OC(C)[C@]2(O)CO)OC(CO)C(O)C1O (stereo not given in full)")
"inactive"
>>> qualitative_label("ICCC(c1ccccc1)(c1ccccc1)c1ccccc1")
"active"
>>> qualitative_label("CSc1nc2nc3c(nc2c(=O)n1C)C(=O)c1ccccc1C3=O")
"active"
>>> qualitative_label("COC(=O)C1=CCC(n2cnc3c(N)ncnc32)O1 (stereo not given)")
"inactive"
>>> qualitative_label("CCN1CCN(c2nc(NNC(=O)Cc3ccccc3)nc(N3CCN(C(c4ccccc4)c4ccccc4)CC3)n2)CC1")
"inactive"
>>> qualitative_label("COc1ccccc1NC(=O)c1sc2nc3c(cc2c1N)C(=O)CCC3")
"inactive"
>>> qualitative_label("O=C(CNC(=O)c1cccc2ccccc12)Nc1ccccc1Oc1ccc(O)cc1")
"inactive"
>>> qualitative_label("O=C(Nc1nc(-c2ccc(Cl)cc2)cs1)c1cc(-c2ccc(Br)cc2)nc2ccc(Cl)cc12")
"inactive"
>>> qualitative_label("COc1ccc(-c2cc(-c3nnc(SCC(=O)Nc4ccc(C(C)=O)cc4)n3-c3ccccc3)c3ccccc3n2)cc1OC")
"inactive"
>>> qualitative_label("COc1cc2c(cc1OC)C(=O)/C(=C/c1cccc(OCC(=O)c3ccccc3)c1)C2")
"inactive"
>>> qualitative_label("Cc1cc2c(cc1C)[n+](Cc1ccc3ccccc3c1)cn2Cc1ccc2ccccc2c1")
"active"
>>> qualitative_label("CCN(CC)c1ccc(N=C2C=CC(=O)C=C2NC(C)=O)cc1")
"inactive"
>>> qualitative_label("O=C(COc1ccc(/C=C2\\Oc3ccc4ccccc4c3C2=O)cc1)c1ccc(Cl)cc1")
"inactive"
>>> qualitative_label("Cc1ccc(-c2c3c(N)nc(-c4ccncc4)nc3nc3c2c(C)nn3-c2ccccc2)cc1")
"active"

---

tested on: DU-145 prostate; experiment: NCI-60 one-dose screen, 48 h; conditions: 10 µM unless noted
About 83,000 compounds went through this panel and 20% of them were active in at least one assay; those are over-represented in the sample as a whole. Activity calls are given as the source filed them. The calls were made as follows: active = growth percent below 10; inactive = the rest.
Outcome codes: active, inactive

>>> qualitative_label("Oc1c(N=Nc2nn[nH]n2)ccc2ccccc12")
"inactive"
>>> qualitative_label("O=C(CNC(=O)c1cccc2ccccc12)Nc1ccccc1Oc1ccc(O)cc1")
"inactive"
>>> qualitative_label("Oc1c(Cl)cc(Cl)c(Cl)c1Cc1c(O)c(Cl)cc(Cl)c1Cl")
"inactive"
>>> qualitative_label("CCOC(=O)/C=C1/SC(=Nc2ccc(C#N)cc2)N(Cc2ccco2)C1=O")
"inactive"
>>> qualitative_label("CSc1nc(-c2ccc(O)cc2O)c2c(=O)[nH]c(Nc3ccc(S(=O)(=O)Nc4nc(C)cc(C)n4)cc3)nc2n1")
"inactive"
>>> qualitative_label("O=C(/C=C/c1ccc(C(F)(F)F)cc1)c1ccc(Nc2nc(NCCO)nc(NCCO)n2)cc1")
"inactive"
>>> qualitative_label("BrC1CC(Br)c2c1c1c(c3c2C(Br)CC3Br)C(Br)CC1Br (stereo unspecified)")
"inactive"
>>> qualitative_label("O=C1C=CC(=O)N1c1ccccn1")
"inactive"
>>> qualitative_label("O=C(CSc1nnc(-c2cc(-c3ccccc3)nc3ccccc23)o1)c1ccc(Br)cc1")
"inactive"
>>> qualitative_label("CC(C)C[C@H](NC(=O)/C=C/Cn1ccc2ccccc2c1=O)B(O)O")
"inactive"
>>> qualitative_label("O=C(NC1CCCCC1)c1ccc(Nc2ncnc3c2cnn3-c2ccccc2)cc1")
"inactive"
>>> qualitative_label("C/C(=C\\CCc1ccoc1)CC/C=C(\\C)CCCNc1ccc(F)cc1")
"inactive"
>>> qualitative_label("Cc1ccc(OCC(=O)Nc2ccc(Oc3ccccc3)cc2)c([N+](=O)[O-])n1")
"inactive"
>>> qualitative_label("O=C(CSc1ncc(-c2ccccc2)n1-c1ccccc1)Nc1ccc(-c2nc3ccccc3s2)cc1")
"inactive"
>>> qualitative_label("Cc1cc(C)c(C(=O)c2cccs2)c(C)c1")
"inactive"
>>> qualitative_label("COC(=O)[C@H](CCCCNC(=O)OCc1ccccc1)NC(=O)[C@@H](NC(=O)Nc1cc(C(F)(F)F)cc(C(F)(F)F)c1)C(C)C")
"active"
>>> qualitative_label("COc1ccc(OC)c(CCn2cncc2-c2c[nH]c3cc(Br)ccc23)c1")
"inactive"
>>> qualitative_label("COc1ccc(C2CC(c3ccc4c(c3)OCO4)=NN2C=O)cc1 (stereo unspecified)")
"inactive"
>>> qualitative_label("COc1ccc2c(c1)sc1nc(-c3ccc(Br)cc3)cn12")
"inactive"
>>> qualitative_label("CCCCCN1C(=O)CCC1=O")
"inactive"
>>> qualitative_label("CC[n+]1c(/C=C/c2ccc(N3CCCC3)cc2)cccc1/C=C/c1ccc(N2CCCC2)cc1")
"active"
